Experiment: Viability qHTS for spleen associated tyrosine kinase inhibitor (SYKi) drug resistant MV4-11 cells (AID 1963824); note: nearly all actives have a fitted effect of over 35% in size
Conditions: SYKi-resistant MV4-11 viability, CellTiter-Glo, 72 h; series mostly up to 45 µM
Records with an inconclusive call do not appear. Activity calls are given as the source filed them. Calls come from the whole dose curve; as a rule, active = well fitted cell-killing curve with a large enough effect; inconclusive = small, poorly fitted or top-dose-only effect, or effect the other way; inactive = no such curve, though single readings can be large or run the other way.
Valid outcomes are listed here; reply with one: active, inactive

# compound, category
measured = [
    ("C[C@@H]1C[C@@H](O)[C@]2(O)O[C@@H]3C[C@@]4(C=O)C(CC[C@@H]5C4CC[C@]4(C)[C@@](O)(C6=CC(=O)OC6)CC[C@]54O)C[C@H]3OC2O1 (stereo not given in full)", "active"),
    ("CC1(C)C(=O)N(c2ccc(C#N)c(C(F)(F)F)c2)C(=S)N1Cc1ccc(-c2cn[nH]n2)cc1", "active"),
    ("CN1[C@H]2CC(O)C[C@H]1[C@H]1O[C@H]12 (stereo not given in full)", "inactive"),
    ("CCCCOC(=O)c1ccnc2cc(C(OCCN3CCCCC3)c3ccccc3Cl)sc12 (stereo not given)", "active"),
    ("C=C1C(=O)CC2OC2(C)CC2OC(=O)C(=C)C2C(O)C1OC(=O)/C(C)=C\\C (stereo not given)", "active"),
]

Okay, next one:
Answer briefly: the call reported for CO[C@H]1[C@H](O)[C@H](O[C@H]2CC[C@]3(C=O)C4CC[C@]5(C)[C@H](C6=CC(=O)OC6)CC[C@]5(O)C4CC[C@@H]3C2)O[C@@H](C)[C@@H]1O (stereo not given in full) in this assay.
active

* * *

Test: Quantitative highthroughput screen to assess conditional lethalithy of NOMO1 cells grown in Human Plasma-Like Medium with dialyzed fetal bovine serum (HPLM+ds) (AID 1963878); note: nearly all actives have a fitted effect of over 35% in size;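 for viability: 100% = DMSO wells and 0% = empty wells on each plate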
Conditions: NOMO1 AML cells in HPLM+ds, CellTiter-Glo viability, 48 h; series mostly up to 45.8 µM
Description: Assay Provider: Jason Cantor Ph.D. Department of Biochemistry University of Wisconsin-Madison, Madison, WI, USA Chemical screening studies have identified drug sensitivities across hundreds of cancer cell lines but most putative therapeutics fail to translate. […] Sets of conditional anticancer compounds spanned phases of clinical development and included non-oncology drugs were assessed. […] 6; Detection; Luminescence, Viewlux PerkinElmer. […]
Results filed as inconclusive are left out. Calls of active or inactive are those of the source. Calls come from the whole dose curve; as a rule, active = well fitted cell-killing curve with a large enough effect; inconclusive = small, poorly fitted or top-dose-only effect, or effect the other way; inactive = no such curve, though single readings can be large or run the other way.
Valid outcomes are listed here; reply with one: y = active, n = inactive

Answer briefly: the call reported for C[C@@H]1C[C@@H]([C@H](O)CC2CC(=O)NC(=O)C2)C(=O)[C@@H](C)C1 in this assay.
y

Answer briefly: the call reported for Oc1ccc2c3c1O[C@H]1c4[nH]c5c(c4C[C@@]4(O)[C@@H](C2)N(CC2CC2)CC[C@]314)C[C@@]1(O)[C@H]2Cc3ccc(O)c4c3[C@@]1(CCN2CC1CC1)[C@H]5O4 in this assay.
n

Answer briefly: the call reported for O=C(Oc1ccc([N+](=O)[O-])cc1)N1CCN(Cc2cccc(Oc3ccccc3)c2)CC1 in this assay.
n

Answer briefly: the call reported for CC=C(C)C(=O)O[C@H]1C(C)=C2[C@@H]3OC(=O)[C@@](C)(O)[C@@]3(O)[C@@H](OC(=O)CCC)C[C@](C)(OC(C)=O)[C@@H]2[C@@H]1OC(=O)CCCCCCC in this assay.
y

Answer briefly: the call reported for N=c1c2c(-c3ccccc3)c(-c3ccccc3)n(Cc3ccccc3)c2ncn1C1CCC(O)CC1 (stereo unspecified) in this assay.
y

Answer briefly: the call reported for CC1=C(O)C(=O)C=C2C1=CC=C1[C@@]2(C)CC[C@@]2(C)[C@@H]3C[C@](C)(C(=O)O)CC[C@]3(C)CC[C@]12C in this assay.
y

* * *

Test: Cellular viability qHTS for adrenocortical cancer (ACC) cell line NCI-H295R (AID 1963990); note: nearly all actives have a fitted effect of over 60% in size
Conditions: CellTiter-Glo ATP luminescence, 48 h; series mostly up to 46.1 µM
Inconclusive results are not listed. Active and inactive are the calls of the source. Calls come from the whole dose curve; as a rule, active = well fitted cell-killing curve with a large enough effect; inconclusive = small, poorly fitted or top-dose-only effect; inactive = flat fitted curve, though single readings scatter.
Valid outcomes are listed here; reply with one: t for active, f for inactive

# compound, category
records = [
    ("COP(=S)(OC)Oc1cc(Cl)c(Cl)cc1Cl", "f"),
]

Answer briefly: the call reported for OCCOc1ccccc1 in this assay.
f

Answer briefly: the call reported for CCCN(CCC)c1c([N+](=O)[O-])cc(S(N)(=O)=O)cc1[N+](=O)[O-] in this assay.
t

Answer briefly: the call reported for C[C@H](Nc1ncnc2nc[nH]c12)c1nc2ccc(F)cc2c(=O)n1-c1ccccc1 in this assay.
f

* * *

Kindly state activity (max response) for each of the entries shown.
Experiment: Cellular viability qHTS for adrenocortical cancer (ACC) cell line SW-13 (AID 1963989);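 note: cells grown in serum-free medium with ITS supplement; % is set by controls: 0 for no effect and ±100 for the full control effect; nearly all actives have a fitted effect of over 65% in size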
Conditions: SW-13 ACC cells viability, CellTiter-Glo, 48 h; active compounds read low
Results filed as inconclusive are left out.
Answers are plain numbers, in %.

// below: answered compounds
# compound, units_symbol, activity (max response)
data = [
    ("O=C(CCl)c1ccc(Cl)cc1Cl", "%", -3.67),
    ("CC1OC(C)OC(C)O1 (centres undefined)", "%", 14),
    ("CC(C)CC(N(C)C)C1(c2ccc(Cl)cc2)CCC1 (centres undefined)", "%", -12.4),
    ("COC(=O)c1cncn1C(C)c1ccccc1 (centres undefined)", "%", -8.99),
    ("CC(C)(O)C(Cl)(Cl)Cl", "%", 9.4),
]

Give one value of activity (max response) per listed compound.
1. CCN(CC)C(=O)N[C@@H]1C=C2c3cccc4[nH]cc(c34)C[C@@H]2N(C)C1
2. CCCCCCCCCC(=O)O[C@H]1CC[C@H]2[C@@H]3CCC4=CC(=O)CC[C@@H]4[C@H]3CC[C@]12C
3. C[C@@H](N)[C@@H](O)c1ccccc1
4. C[N+]1(C)[C@@H]2CC[C@H]1CC(OC(=O)C(CO)c1ccccc1)C2 (some centres undefined)
5. Cc1ccc(S(=O)(=O)N[C@@H](CCCCN)C(=O)CCl)cc1
6. CCCCOC(=O)c1ccccc1C(=O)OCc1ccccc1
7. CC(C)(C)NCC(O)c1cc(Cl)c(N)c(Cl)c1 (centres undefined)

1. 5.3
2. 6.32
3. 3.81
4. -4.66
5. 15.2
6. 0.138
7. 11.4

Give one value of activity (max response) per listed compound.
1. CCCC(C)C1(CC)C(=O)N=C(S)NC1=O (centres undefined)
2. O=C(CCCN1CCC2(CC1)C(=O)NCN2c1ccccc1)c1ccc(F)cc1
3. CC(C)=CC1C(C(=O)OCN2C(=O)C3=C(CCCC3)C2=O)C1(C)C (centres undefined)

[-0.902, -12.3, -13.2]

Give one value of activity (max response) per listed compound.
1. C=C[C@H]1CN2CCC1C[C@@H]2[C@@H](O)c1ccnc2ccccc12 (some centres undefined)
2. CCc1cc2c(s1)-n1c(C)nnc1CN=C2c1ccccc1Cl
3. O=C(O)COc1nc(Cl)c(Cl)cc1Cl
4. Cc1cccc(C)c1NC1=NCCCS1
5. CCC1(C2=NCCN2)Cc2ccccc2O1 (centres undefined)

1: -20.5; 2: 12.2; 3: 12.3; 4: -0.0852; 5: 12

* * *

Assay: Viability qHTS for spleen associated tyrosine kinase inhibitor (SYKi) drug resistant MV4-11 cells (AID 1963824); note: nearly all actives have a fitted effect of over 35% in size
Conditions: SYKi-resistant MV4-11 viability, CellTiter-Glo, 72 h; series mostly up to 45 µM
Inconclusive results are not listed. Active and inactive are the calls of the source. Calls come from the whole dose curve; as a rule, active = well fitted cell-killing curve with a large enough effect; inconclusive = small, poorly fitted or top-dose-only effect, or effect the other way; inactive = no such curve, though single readings can be large or run the other way.
Valid outcomes are listed here; reply with one: active, inactive

# molecule, category
data = [
    ("CC1CCCC(O)CC(=O)Cc2cc(O)cc(O)c2C(=O)O1 (centres undefined)", "inactive"),
    ("O=C1CN=C(c2ccccc2Cl)c2cc(Br)ccc2N1", "inactive"),
    ("CCC1C2CC3C4N(C)c5ccccc5C45CC(C2C5O)N3C1O (centres undefined)", "inactive"),
    ("CC12CCC3C(C1)c1c(cc(O)c(C(=O)c4ccccc4)c1OC3(C)C)O2 (centres undefined)", "active"),
    ("CCN1C[C@]2(OC(=O)c3ccccc3NC(C)=O)CC[C@H](OC)[C@@]34[C@@H]2C[C@@H]([C@@H]13)[C@@]1(O)C[C@H](OC)[C@H]2C[C@@H]4[C@]1(O)[C@H]2OC", "active"),
    ("CCN1C[C@]2(COC(=O)c3ccccc3N3C(=O)C[C@H](C)C3=O)CC[C@H](OC)[C@@]34[C@@H]5C[C@H]6[C@H](OC)[C@@H]5[C@](O)(C[C@@H]6OC)[C@](O)([C@@H](OC)[C@H]23)[C@@H]14", "inactive"),
    ("CN(C)C(=S)SSC(=S)N(C)C", "active"),
    ("C/C=C(\\C)C(=O)O[C@@H]1[C@@H](C)[C@]2(O)C3C=C(C)C(=O)[C@@]3(O)CC(CO)=C[C@H]2C2C(C)(C)[C@@]21OC(=O)C(C)CC (some centres undefined)", "active"),
    ("c1ccc2c(c1)Sc1ccccc1N2CC1CN2CCC1CC2 (centres undefined)", "active"),
    ("CC(=O)O[C@H]1C[C@]2(O)[C@@H]3CC[C@@H]4C[C@@H](O)CC[C@]4(C)[C@H]3CC[C@]2(C)[C@H]1c1ccc(=O)oc1", "active"),
]

Answer briefly: the call reported for CN1C[C@H](CNC(=O)OCc2ccccc2)C[C@@H]2c3cccc4c3c(cn4C)C[C@H]21 in this assay.
active

Answer briefly: the call reported for NP(N)(=O)NC(=O)c1ccc(F)cc1 in this assay.
inactive
